Tested on: A673/TR/shEF
Assay: cell viability (LOESS-normalised, relative to median of negative controls) (log2 ratio); higher = more viable cells (less compound effect), active = hit call of the paper (over 3 MAD below the median)
Conditions: 2.5 µM; library screen: screen1; EWS-FLI1 expression: low (doxycycline-induced shRNA knockdown); treatment time: 72 h
Among all 3,200 compounds or so, about 300 (9.4%) showed activity. The list comes from a sample in which actives are over-represented; it also holds close analogues and randomly drawn compounds.
Consider the following partition of reported cell viability (log2) into named classes: low value: < 0.03; medium value: ≥ 0.03 and < 0.1; high value: ≥ 0.1

1) CCOc1ccc(C(=O)c2cc(O)c(OC)c(OC)c2O)cc1 :: high value
2) CC(C)=CCc1c(O)cc(C)oc1=O :: low value
3) COc1ccc(CN2CCN(Cc3ccccc3Br)CC2)cc1OC :: high value
4) O=C(NC(=S)Nc1ncc(Br)cc1Br)c1cccs1 :: medium value
5) O=C(O)/C=C1/CCCc2ccccc2C1O (stereo not drawn) :: high value
6) COc1ccc(-c2c(OC)c3c(OC)c4c(cc3oc2=O)OC(C)(C)C=C4)cc1 :: low value
7) CC12CC[C@](C)(C(=O)O)CC1C1=CC(=O)[C@@H]3C4(C)CC[C@H](OC(=O)CCC(=O)O)C(C)(C)[C@@H]4CCC3(C)[C@]1(C)CC2 (stereo partly drawn) :: low value
8) CC[C@H](CO)Nc1nc(NCc2ccccc2)c2ncn(C(C)C)c2n1 :: medium value
9) COc1ccc2c(c1)O[C@H]1c3ccc(O)cc3OC[C@@H]21 :: high value
10) COc1cc2c(cc1OC)[C@@H]1C(=O)c3c(cc4c(c3O)C=CC(C)(C)O4)O[C@@H]1CO2 :: low value

// query Given `CCN(CCCc1ccccc1)CCCc1ccccc1` , name the class its cell viability (log2) places it in.
// result high value

// query // return the class label for C/C1=C\CC(C)(C)/C=C\CC2(C)OC2CC1 (stereo not drawn)
// result high value

// query Hi there! Could you help me figure out the category for `NC[C@@H]1O[C@H](O[C@H]2[C@@H](O)[C@H](O[C@@H]3[C@@H](O)[C@H](N)C[C@H](N)[C@H]3O[C@H]3O[C@H](CO)[C@@H](O)C[C@H]3N)O[C@@H]2CO)[C@H](N)[C@@H](O)[C@@H]1O[C@H]1O[C@H](CO)[C@@H](O)[C@H](O)[C@@H]1O` please?
// result medium value

// query Consider `COc1cc2c(cc1OC)[C@@H]1C(=O)c3ccc4c(c3O[C@@H]1CO2)C=CC(C)(C)O4` . To which cell viability (log2) class does it belong?
// result low value

// query Bin? C[S+]([O-])c1ccc(-c2nc(-c3ccc(F)cc3)c(-c3ccncc3)[nH]2)cc1 (stereo not drawn)
// result high value

// query Could you tell me which band C[C@]12CCC3c4ccc(OC(=O)CCC(=O)O)cc4CCC3C1CCC2=O (stereo partly drawn) belongs to?
// result medium value

// query Entry COc1c(C2COc3cc4c(cc3C2=O)CC(O)C(C)(C)O4)ccc2c1CCC(C)(C)O2 (stereo not drawn) belongs to which category?
// result low value

// query Into which category would you place CC1(C)C(=O)CC[C@@]2(C)C1C[C@@H](O)[C@@]1(C)C3=CC(=O)O[C@@H](c4ccoc4)[C@]3(C)CCC21 (stereo partly drawn) ?
// result medium value

// query # bin lookup: classify `O=C1CCCCC/C=C\CCCCCCCCO1` by its cell viability (log2)
// result medium value

// query Lab note: sort CC(C)CCCC(C)C1CCC2C3CC=C4CC(=O)CCC4(C)C3CCC12C (stereo not drawn) into the matching cell viability (log2) band.
// result high value

// query Which category fits this record: `O=c1cc([C@H]2Oc3cc(O)cc(O)c3C[C@H]2O)cc2c([C@H]3Oc4cc(O)cc(O)c4C[C@H]3O)cc(O)c(O)c2c1O`
// result high value

// query Class? Entry: `CC(C)c1c(O)ccc2c1CC[C@H]1C(C)(C)CCC[C@]21C`
// result high value

// query Which cell viability (log2) category applies to `COc1ccc2c(c1)O[C@@H]1COc3cc(OC)c(OC)cc3[C@@H]1C2=O` here?
// result low value

// query Category of `CCc1c(C)c(C#N)c2nc3ccccc3n2c1-n1ccnc1C` :
// result high value

// query In plain terms, what class is `CC(C)=CCC[C@@H](C)[C@H]1CC[C@@]2(C)C3=C(CC[C@]12C)[C@@]1(C)CC[C@H](O)C(C)(C)[C@@H]1CC3` ?
// result low value

// query Band for `O=C(Nc1c(-c2ccccc2)nc2ccc(Cl)cn12)c1ccc(F)cc1` ?
// result low value

// query Returns: class label. Input: `C[C@@H]1CC[C@@]2(OC1)O[C@H]1C[C@H]3[C@@H]4CC[C@H]5C[C@@H](O)CC[C@]5(C)[C@H]4CC(=O)[C@]3(C)[C@H]1[C@@H]2C`
// result medium value

// query // return the class label for `CCOC(=O)c1c[nH]c2c(C)cccc2c1=O`
// result low value

// query Categorize the following entry: `Cc1c(NC(=O)Nc2ccc3ccccc3c2)c(=O)n(-c2ccccc2)n1C`
// result high value

// query Which cell viability (log2) category applies to `COc1cc2c(cc1OC)[C@@H]1C(=O)c3c(O)cc4c(c3O[C@@H]1CO2)C=CC(C)(C)O4` here?
// result low value

// query Which bin, given its cell viability (log2), does COC(=O)C[C@H]1C(C)(C)C2(Cl)O[C@@]34CC2C(=O)[C@]1(C)C3CC[C@]1(C)C4=CC(=O)O[C@H]1c1ccoc1 (stereo partly drawn) occupy?
// result high value

// query Lab note: sort CN1[C@@H]2CC[C@@H]1CC(OC(c1ccccc1)c1ccccc1)C2 (stereo partly drawn) into the matching cell viability (log2) band.
// result medium value

// query Form: Item = `COc1cc(CN2CCN(Cc3ccc([N+](=O)[O-])cc3)CC2)c([N+](=O)[O-])cc1OC` ; Class = ?
// result high value

Values from the supplement of paper PMC6089552
